- System: 786-0
- method_description: NCI tumour cell line growth inhibition, 48 h
Active and inactive are the calls of the source. Cut-off read from the data, not from the text of the source: active = GI50 up to about 1.1 µM and inactive = higher.
observation_type: GI50

Query :: Given the compound NC(=O)CCC(NC(=O)c1cccc2c(=O)c3ccccc3[nH]c12)C(=O)O (stereo not drawn) , what is its reported GI50?
Result :: > 100 µM (inactive)

Query :: // returns reported GI50 for input Cc1cccc2c(N)c3cccc(C(=O)NCC[N+](C)(C)Cc4c([N+](=O)[O-])ncn4C)c3nc12
Result :: 6.5 µM (inactive)

Query :: Recorded GI50 for O=P1(NCCCl)OCCC(OO)N1CCCl (stereo not drawn) , please?
Result :: 26.1 µM (inactive)

Query :: Look up GI50: C#C[C@]1(O)CCC2C3CCc4cc(Oc5nc(F)nc(-c6c7cc8ccccc8cc7c7n6CCS7)n5)ccc4C3CCC21C (stereo partly drawn)
Result :: 51.8 µM (inactive)

Query :: Entry SC1=NC2=C(CSC/C2=C\c2ccccc2)C(c2ccccc2)N1 (stereo not drawn) : reported GI50 = ?
Result :: 34.2 µM (inactive)

Query :: Name the recorded GI50 for CN(CCNC(=O)c1cn(C)c2c1ccc1cc(Cl)c(Cl)cc12)CCNC(=O)c1cn(C)c2c1ccc1cc(Cl)c(Cl)cc12 .
Result :: 1.65 µM (inactive)

Query :: May I ask what GI50 has been recorded for Cc1ccc(/N=N/c2c(O)c(C(=O)O)cc3ccccc23)cc1C ?
Result :: > 100 µM (inactive)

Query :: Form field: reported GI50 of COc1cc2c3c(c1OC)/C(=N/OS(=O)(=O)c1ccc(C)cc1)CC3N(S(=O)(=O)c1ccc(C)cc1)CC2 (stereo not drawn)
Result :: > 100 µM (inactive)

---

- System: HCT-116
- method_description: NCI tumour cell line growth inhibition, 48 h
Active and inactive are the calls of the source. Rule as the data show it: active = GI50 up to about 1.1 µM and inactive = higher. Peptide text beside a SMILES is read from it.
Provide the recorded GI50 for the entries that follow.

Query :: # get_value(readout='GI50', item= CCC(C)C(NC(=O)C(NC(=O)C(CC(N)=O)NC(=O)CN)C(C)O)C(=O)NC(C(=O)NC(C)C(=O)NC(C(=O)NC(CCC(=O)O)C(=O)NC(CC(C)C)C(=O)NC(CC(=O)O)C(=O)NC(C(=O)NC(Cc1ccc(O)cc1)C(=O)N1CCCC1C(=O)O)C(C)O)C(C)C)C(C)C (stereo not given) (H-GNTIVAVELDTYP-OH; configuration not given here) )
Result :: > 50 µM (inactive)

Query :: Requested field: GI50. Item: C=C(CO)[C@H]1Oc2ccc(C(C)=O)cc2[C@@H]1O
Result :: > 100 µM (inactive)

Query :: Fill in the blank: the reported GI50 of C1C[N+]23CCC[N+]2(C1)CCC3 (stereo not given) is ____.
Result :: > 100 µM (inactive)

Query :: Any idea what GI50 was measured for Cc1cc(CC(O)(C(F)(F)F)C(F)(F)F)cc(CC(O)(C(F)(F)F)C(F)(F)F)n1 ?
Result :: 2.34 µM (inactive)

Query :: I would be grateful if you could share the reported GI50 for COc1ccc(C2OC2C(=O)C23CC4CC(CC(C4)C2)C3)cc1 (stereo not given) .
Result :: 58.6 µM (inactive)

---

- System: SNB-19
- method_description: NCI tumour cell line growth inhibition, 48 h
Active and inactive are the calls of the source. No stated cut-off is given here; in the data, active = GI50 up to about 1.1 µM and inactive = higher. Positions of bridges follow the written chain, without caps; N, C: chain ends. Residues, ends and D or L forms follow the SMILES beside them.
A correct response names exactly one class from yes (active), no (inactive)

Query :: What is the recorded call for this compound in the test? C/C=C1\CN2CCc3c([nH]c4ccccc34)C2C=C1CCO (centres undefined)
Result :: no

Query :: Outcome logged for CC(O)c1cc2c(s1)C(=O)c1sccc1C2=O (centres undefined) in this assay:
Result :: yes

Query :: Record lookup: outcome of this test for O=C(/C=C/c1ccccc1)OCC1=C[C@@H](O)[C@@H]2C=CO[C@@H](OC3OC(CO)C(O)C(O)C3O)[C@H]12 (some centres undefined) ?
Result :: no

Query :: Tell me the recorded outcome of this test for CCN1C(=O)C(=CN)C(=O)N(CC)C1=O .
Result :: no

Query :: Write down the call the test reported for this compound. Item: COc1ccc(NC=O)c(C(=O)CCNC(C)=O)c1
Result :: no

Query :: Name the outcome recorded for O=C(O)CNS(=O)(=O)c1ccc(NC(=O)c2cccc([N+](=O)[O-])c2)cc1 in the assay.
Result :: no

Query :: Hello, I am checking results. What call was entered for CCOc1ccccc1NC(=O)C(C#N)C1=C(Cl)C(=O)c2ccccc2C1=O (centres undefined) ?
Result :: no

Query :: Outcome? O=c1c2cccnc2cc(-c2ccccc2)n1CCO
Result :: no

Query :: Just curious, what result did N#Cc1c(N)n(C2OC(CO)C(O)C2O)c2ncnc(N)c12 (centres undefined) get here?
Result :: yes

Query :: Per the assay record, what outcome was assigned to O=c1[nH]c2ccc(C(F)(F)F)cc2nc1C(F)(F)F ?
Result :: no

Query :: Could you check what this test reported for COC(=O)C1CCC(=O)NCCCCC(NC(=O)C(N)CC(=O)O)C(=O)N1 (stereo not drawn) (H-Asp-Lys-Glu-OMe; lactam 2-3; configuration not given here) ?
Result :: no

Query :: Identify the outcome logged in this assay for the compound shown: S=C1Cc2c(-c3ccc(Cl)cc3)cc(-c3ccccc3)nc2-c2ccccc2N1
Result :: no

Query :: Hi, sorry to bother you, what did the test record for COC(=O)c1ccc(Cl)cc1NC(=O)C1CCCCC1 ?
Result :: no

Query :: Answer briefly: the call reported for Cc1ccc(S(=O)(=O)OCOS(=O)(=O)c2ccc(C)cc2)cc1 in this assay.
Result :: no

Query :: Short answer needed: outcome of this test for CC(C)(C)NC(=O)C12C3C4C1C1C2C3C41C(=O)NC(C)(C)C (centres undefined) ?
Result :: no

Query :: # lookup: test call for CCN(CC)Cc1cc(Nc2c3ccccc3nc3c2[nH]c2ccccc23)cc(CN(CC)CC)c1O
Result :: no

Query :: Outcome logged for O=C=C=P(c1ccccc1)(c1ccccc1)c1ccccc1 in this assay:
Result :: no

Query :: Name the outcome recorded for CC(=O)N1[C@H](C(=O)O)CS[C@H]1c1ccncc1 in the assay.
Result :: no

Query :: So what was the verdict on SC1=NC2=C(CSC/C2=C\c2ccccc2)C(c2ccccc2)N1 (centres undefined) in this test?
Result :: no

Query :: Assay result, entry NC(=O)CCC(NC(=O)c1cccc2c(=O)c3ccccc3[nH]c12)C(=O)O (centres undefined) — outcome?
Result :: no

Query :: What classification did CC1=CC(=O)/C(=C/NC(N)=S)C(=O)O1 end up with in this test?
Result :: no

Query :: Query: recorded result category for Clc1ccc(C[P+](c2ccccc2)(c2ccccc2)c2ccccc2)c(Cl)c1 in this test
Result :: no

Query :: // return assay outcome for C[C@@H]1CC[C@]2(C)C3(C)CC[C@]2(OC3=O)[C@@]12CC(c1ccoc1)OC2=O (some centres undefined)
Result :: no

Query :: # outcome recorded in this test, key = COc1cccc(NC(=O)CC(=O)N2N=C(N3c4ccccc4Sc4ccccc43)CC2c2ccccc2)c1 (centres undefined)
Result :: no

Query :: Test call for this compound, please: CC(C)(c1ccccc1)c1ccc(Oc2ccc3c(c2)-c2nc-3nc3[nH]c(nc4nc(nc5[nH]c(n2)c2ccc(Oc6ccc(C(C)(C)c7ccccc7)cc6)cc52)-c2cc(Oc5ccc(C(C)(C)c6ccccc6)cc5)ccc2-4)c2ccc(Oc4ccc(C(C)(C)c5ccccc5)cc4)cc32)cc1
Result :: no

Query :: Look up the recorded call for CN1C(=O)N(C)C2(CCN(CCCCCCF)CC2)C1=O in this test.
Result :: no

Query :: Look up the recorded call for Nc1nc(N)c2nc(CNc3ccc(C(=O)NC(CCNC(=O)c4ccccc4C(=O)O)C(=O)O)cc3)cnc2n1 (centres undefined) in this test.
Result :: yes

Query :: // param item: O=C1c2cc3ccccc3cc2C2(c3ccc(Cl)cc3)N[C@H]3CCCC[C@@H]3N12 (some centres undefined) ; yields the recorded call
Result :: no

Query :: Per the records of this test, what outcome belongs to COc1ccc(C/C=C(\C)CCO)cc1 ?
Result :: no
